system: recombinant human AChE (Homo sapiens, UniProt P22303)
Sequence (P22303 32-614): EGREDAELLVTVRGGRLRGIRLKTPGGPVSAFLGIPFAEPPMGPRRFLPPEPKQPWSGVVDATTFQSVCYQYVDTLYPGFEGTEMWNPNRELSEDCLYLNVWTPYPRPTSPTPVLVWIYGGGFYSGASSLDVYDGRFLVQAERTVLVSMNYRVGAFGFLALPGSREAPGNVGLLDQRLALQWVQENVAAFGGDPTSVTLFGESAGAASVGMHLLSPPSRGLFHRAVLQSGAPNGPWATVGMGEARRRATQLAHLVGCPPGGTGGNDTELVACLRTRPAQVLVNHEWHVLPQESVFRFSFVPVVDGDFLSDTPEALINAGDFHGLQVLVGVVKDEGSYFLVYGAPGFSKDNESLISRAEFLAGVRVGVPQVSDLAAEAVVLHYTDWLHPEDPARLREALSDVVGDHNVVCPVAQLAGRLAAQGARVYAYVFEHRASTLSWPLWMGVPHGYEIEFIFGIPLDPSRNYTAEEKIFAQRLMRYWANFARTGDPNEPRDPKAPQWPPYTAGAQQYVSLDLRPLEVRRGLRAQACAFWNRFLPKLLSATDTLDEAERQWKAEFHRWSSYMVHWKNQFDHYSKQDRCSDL
test.name: biochemical
CC-v2 (curve classes) by entry:

Notebook entry, recombinant human AChE (Homo sapiens, UniProt P22303) assay: CC-v2 (curve classes) of CNC(=O)Oc1ccccc1OC(C)C [Propoxur] = ?
-1.1

Give CC-v2 (curve classes) (recombinant human AChE (Homo sapiens, UniProt P22303)) of the following compound: Cc1ccc(S(=O)(=O)Oc2ccc(N=Nc3ccc(-c4ccc(N=Nc5c(O)ccc6cc(S(=O)(=O)[O-])cc(S(=O)(=O)[O-])c56)c(C)c4)cc3C)cc2)cc1.[Na+].[Na+] [C.I. Acid Red 114]
-1.1

Source listed as paper PMC8041433.
